- Protocol Details: blood-stage malaria parasite viability loss – strain 3D7, DAPI fluorescence, 100 nL, primary screen (AID 1184);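 also: parasites grown inside human red blood cells in medium with human serum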
- Assay Setup: P. falciparum 3D7 growth, 3 d, higher = more signal
Use -0.6 as the dividing line for z-score, with the line itself on the true (1) side and lower values as false (0).

{"Compound": "O=C1C2C=CC(C(O)C=Cc3ccc([N+](=O)[O-])cc3)N(Nc3ccccc3F)C2C(=O)N1c1ccccc1 (centres undefined)", "Answer Label": "true (1)"}
{"Compound": "CN(C)CCCCNC(=O)[C@@H]1C[C@@H]2C(=O)N[C@@H](CCCCN)C(=O)N2[C@@H]1c1ccc(O)cc1", "Answer Label": "false (0)"}
{"Compound": "CN(C)C(=O)[C@]1(Cc2ccccc2)N=C(c2ccc(OCCCO)cc2)O[C@@H]1c1ccccc1N=[N+]=[N-]", "Answer Label": "false (0)"}
{"Compound": "C=CCN(Cc1ccccc1)C(=O)C(c1cccs1)N(C(=O)/C=C\\C(=O)O)c1ccc(CCOCCO)cc1 (centres undefined)", "Answer Label": "true (1)"}
{"Compound": "COCCOC(=O)N1C(=O)[C@@]2(c3cc(C#CC4(O)CCCCCC4)ccc31)[C@H](C(=O)Nc1nc3ccccc3s1)[C@H]1C(=O)O[C@H](c3ccccc3)[C@H](c3ccccc3)N1[C@@H]2c1ccc(OCCO)cc1", "Answer Label": "false (0)"}
{"Compound": "COc1ccc(CCNC(=O)[C@@]2(C)c3ccccc3C(=O)N(c3ccc(C)cn3)[C@H]2c2ccc(CO)cc2)cc1", "Answer Label": "true (1)"}
{"Compound": "CCCCN1CC=CC23O[C@@H]4/C=C\\CCCOC(=O)C4[C@H]2C(=O)N(CCCO)[C@@H]3C1=O (some centres undefined)", "Answer Label": "true (1)"}
{"Compound": "C=CC[C@@]1(C(=O)N2CCCCC2)N=C(c2ccc(OCCCO)cc2)O[C@@H]1c1ccccc1CN=[N+]=[N-]", "Answer Label": "false (0)"}
{"Compound": "COC(=O)c1c(CC[C@@H](CO)NC(=O)N[C@H](Cc2ccccc2)Cn2cc(-c3ccccn3)nn2)oc(C(C)=O)c1C(=O)OC", "Answer Label": "true (1)"}
{"Compound": "CC(C)CN1C(=O)[C@@]2(c3ccc([N+](=O)[O-])cc3)CC(=O)N(C3CCCCC3)[C@@H]2c2ccc(CO)cc21", "Answer Label": "false (0)"}
{"Compound": "COc1ccc(NC(=O)O[C@H]2[C@H](OC(=O)c3cc4ccccc4[nH]3)[C@@H](OC(=O)c3cc4ccccc4[nH]3)[C@@H](OC)O[C@@H]2CO)cc1", "Answer Label": "false (0)"}
{"Compound": "NC(=O)NCC#Cc1ccc2c(c1)[C@]1(C(=O)N2)[C@H](C(=O)O)[C@H]2C(=O)O[C@H](c3ccccc3)[C@H](c3ccccc3)N2[C@@H]1c1ccc(O)cc1", "Answer Label": "true (1)"}
{"Compound": "CCOC(=O)C[C@H]1[C@H](OC(=O)c2ccc(-c3ccccc3)cc2)[C@@H](NC(=O)c2ccccc2)c2cc(OCCCO)ccc2N1C(=O)Cc1ccc(OC)cc1", "Answer Label": "false (0)"}
{"Compound": "O=C1OCCC/C=C\\[C@H]2OC34C=CCN(c5ccc6ccccc6c5)C(=O)[C@H]3N(CCCCCO)C(=O)[C@@H]4C12 (some centres undefined)", "Answer Label": "true (1)"}
